Molecular target: T1, human amylin-3 (a) receptor (human, UniProt P30988 25-474; O60896 24-148)
T1 sequence (looked up) 1: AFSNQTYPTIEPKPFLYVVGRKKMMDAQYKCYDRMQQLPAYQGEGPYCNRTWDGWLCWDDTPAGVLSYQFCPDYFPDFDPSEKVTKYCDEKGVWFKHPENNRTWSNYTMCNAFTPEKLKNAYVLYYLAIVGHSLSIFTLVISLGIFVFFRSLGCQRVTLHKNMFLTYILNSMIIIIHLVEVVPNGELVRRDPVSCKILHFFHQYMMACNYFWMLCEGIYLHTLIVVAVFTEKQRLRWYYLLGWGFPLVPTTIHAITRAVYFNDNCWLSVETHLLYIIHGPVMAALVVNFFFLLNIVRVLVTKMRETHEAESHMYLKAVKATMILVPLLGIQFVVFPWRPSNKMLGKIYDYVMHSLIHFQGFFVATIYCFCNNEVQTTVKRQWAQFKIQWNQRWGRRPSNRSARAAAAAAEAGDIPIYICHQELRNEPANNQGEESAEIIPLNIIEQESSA
T1 sequence (looked up) 2: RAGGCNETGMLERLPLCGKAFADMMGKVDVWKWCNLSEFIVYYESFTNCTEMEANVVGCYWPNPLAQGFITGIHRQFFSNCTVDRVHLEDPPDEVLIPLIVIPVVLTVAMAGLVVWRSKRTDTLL
Assay: cell-based or functional assay
Starred links: 1 amine or outer side, 2 acyl side, 3 side chain; linkers in the order of their positions; H or OH if unused. Non-standard residues stand in square brackets, D forms with d. Groups on a side chain read outwards from the residue. *: point of attachment. C20 diacid = O=C(O)CCCCCCCCCCCCCCCCCCC(=O)*; C16 diacid = O=C(O)CCCCCCCCCCCCCCC(=O)*; γGlu = O=C(O)[C@H](CCC(=O)[*:2])N[*:1]; εLys = N[C@@H](CCCCN[*:1])C(=O)[*:2]; Trx = NC[C@H]1CC[C@H](C(=O)O)CC1; AEEA = NCCOCCOCC(=O)O; Aib = CC(C)(N)C(=O)O
Attribute Measured: Human AmyR3 potency [EC50 (pM)]
Express it in pM; write the number only.

I have this binder here, Compound 0076 (peptide) peptide: H[Aib]EGTFTSDVSSYLEEQAARK([AEEA-AEEA-γGlu-C16 diacid])FIAWLVRGK([AEEA-AEEA-γGlu-C16 diacid])GGGEASELSTAALGRLSAELHELATLPRTETGSGSP-NH2 , and I need its recorded Human AmyR3 potency [EC50 (pM)].
46.4

Reported Human AmyR3 potency [EC50 (pM)] for Compound 0632 (peptide) peptide: H[Aib]EGTFTSDVSK([γGlu-γGlu-γGlu-γGlu-C20 diacid])YLEEQAAREFIEWLVRGAAEASELSTAALGRLSAELHELATLPRTETGSGSP-NH2 : what is it?
148

// Human AmyR3 potency [EC50 (pM)] lookup, key: Compound 0633 (peptide) peptide: H[Aib]EGTFTSDVSSYLEEQAARK([γGlu-γGlu-γGlu-γGlu-C20 diacid])FIAWLVRGRGGGGGEASELSTAALGRLSAELHELATLPRTETGSGSP-NH2
5.3

// query Human AmyR3 potency [EC50 (pM)] value for entry Compound 0437 (peptide) peptide: HWEGTFTSDVSSYLEEQAARK([εLys-AEEA-AEEA-γGlu-Trx-C20 diacid])FIEWLVRGRGEASELSTAALGRLSAELHELATLPRTETGSGSP-NH2
11.8
